- system_tested: GPR120 (Homo sapiens, UniProt Q5NUL3)
- Sequence (Q5NUL3 whole entry, species assumed): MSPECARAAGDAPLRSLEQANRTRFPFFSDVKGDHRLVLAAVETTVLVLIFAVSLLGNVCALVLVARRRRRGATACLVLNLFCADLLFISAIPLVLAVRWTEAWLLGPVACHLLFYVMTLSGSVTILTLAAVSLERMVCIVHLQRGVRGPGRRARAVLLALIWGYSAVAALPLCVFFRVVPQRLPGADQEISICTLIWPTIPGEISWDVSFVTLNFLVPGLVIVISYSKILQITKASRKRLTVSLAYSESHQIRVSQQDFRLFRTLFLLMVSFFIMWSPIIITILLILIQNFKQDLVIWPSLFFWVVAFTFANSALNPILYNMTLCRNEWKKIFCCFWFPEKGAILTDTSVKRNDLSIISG
- test_summary: GPR120 Ca2+ flow assay in HEK293 cells stably transfecting the GPR120-Rluc gene
- Type: cell-based
- Parameters: expressed in transfected cells
- particulars: Table 3; read-out: FFA4 (Ca2+ pEC50) (converted)
EC50 overview
Express your answer in nM, writing the number without its unit.

- O=S(=O)(Nc1ccc(F)cc1)c1ccc(-c2ccc(OC(F)(F)F)cc2)cc1: 5.37
- O=S(=O)(Nc1ccc(Cl)cc1Cl)c1ccc(-c2ccc3ccccc3c2)cc1: 129
- Cc1cc(C)c(NS(=O)(=O)c2ccc(-c3ccc(OC(F)(F)F)cc3)cc2)c(C)c1: 81.3

EC50 recorded for this molecule, Cc1cc(C)c(NS(=O)(=O)c2ccc(-c3ccc(N)c(F)c3)cc2)c(C)c1 , is 204

EC50 recorded for this molecule, Cc1cc(C)c(NS(=O)(=O)c2ccc(-c3ccc4ccccc4c3)cc2)c(C)c1 , is 138
